Target: T1, recombinant human TNFR2 antigen (Kangdai, batch number A100114U) (human, UniProt P20333 23-257)
T1 construct: also called hTNFR2; TNFR2-FC (Shanghai Saijin Biopharmaceutical Co., Ltd., Qiangke, catalog number A100114U); not shown: Fc part of the bought TNFR2-FC
T1 sequence (looked up): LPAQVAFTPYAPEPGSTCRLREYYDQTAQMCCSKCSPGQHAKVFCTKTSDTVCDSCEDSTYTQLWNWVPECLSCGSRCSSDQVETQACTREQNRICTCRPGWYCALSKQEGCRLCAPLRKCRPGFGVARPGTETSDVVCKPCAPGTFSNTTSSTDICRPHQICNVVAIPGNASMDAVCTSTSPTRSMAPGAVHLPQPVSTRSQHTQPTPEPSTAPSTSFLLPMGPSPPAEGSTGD
Experiment: ELISA, coated recombinant human TNFR2
Please respond with reported EC50 for every item in the list.
Return type: number; implicit unit µg/mL.

Give EC50 for anti-human TNFR2 mouse monoclonal antibody 12E12 (antibody, V domains shown) VH: EVQLQQSGAELVKPGASVKLSCTVSGFNIKDFYIHWVKQRPEQGLEWIGRVDPEDGNTEYAPNFQDRATMTTDTSSNTAYLQLSSLTSVDTAVYYCSTWDGFSYFDYWGLGTTLTVSS VL: QAVVTQESALTTSPGETVTLTCRSSTGPVTTNNYANWVQEKPDHLFTGLIGGTNDRAPGVPARFSGSLIGDKTALTITGTQTEDEAVYFCALWYRNHWVFGGGTKLTVL
0.0707

Give EC50 for anti-human TNFR2 mouse monoclonal antibody 29A1 (antibody, V domains shown) VH: QVQLQQSGAEVVRPGASVTLSCKASGYTFSDYEMHWVKQTPVHGLEWIGAIDPETGDTAYNQKFKDKARVTADKSSSTAYMELRSLTSEDSAVYYCTRDIHYYGSSLSYFDYWGQGTTLTVSS VL: DIVMTQSQKFMSTSVGDRVSVTCKASQNVGTNVAWYQQKPGQSPKVMIYSASYRYSGAPDRFTGSGSGTDFTLTVNNVQSEDLAEYFCQQYKTYPYTFGGGTKLEIE
0.0255

Give EC50 for anti-human TNFR2 mouse monoclonal antibody 7F2 (antibody, V domains shown) VH: QVTLKESGPGILQPSQTLSLTCSFSGFSLNTFGLGVGWIRQPSGKGLEWLTHIWWNDDKYYNPALKSRLTISRDTSENLVFLKIANVDTADTATYYCARIEGLRRFDYWGQGTTLTVSS VL: DIQMTQSPSSLSASLGGKVTITCKTSQDINKFIAWYQHKPGKGPRLLIHYTSTLQPGIPSRFSGSGSGRDYSFSISDLEPEDIATYYCLQYANLWAFGGGTKLEIK
0.0623
